Where do the numbers come from? From patent US6596687B1.

Target: VLA4 (Homo sapiens, UniProt P05556+P13612)
Construct: endogenous in cells; host or cells: Ramos cells
Sequence (P13612 34-1032): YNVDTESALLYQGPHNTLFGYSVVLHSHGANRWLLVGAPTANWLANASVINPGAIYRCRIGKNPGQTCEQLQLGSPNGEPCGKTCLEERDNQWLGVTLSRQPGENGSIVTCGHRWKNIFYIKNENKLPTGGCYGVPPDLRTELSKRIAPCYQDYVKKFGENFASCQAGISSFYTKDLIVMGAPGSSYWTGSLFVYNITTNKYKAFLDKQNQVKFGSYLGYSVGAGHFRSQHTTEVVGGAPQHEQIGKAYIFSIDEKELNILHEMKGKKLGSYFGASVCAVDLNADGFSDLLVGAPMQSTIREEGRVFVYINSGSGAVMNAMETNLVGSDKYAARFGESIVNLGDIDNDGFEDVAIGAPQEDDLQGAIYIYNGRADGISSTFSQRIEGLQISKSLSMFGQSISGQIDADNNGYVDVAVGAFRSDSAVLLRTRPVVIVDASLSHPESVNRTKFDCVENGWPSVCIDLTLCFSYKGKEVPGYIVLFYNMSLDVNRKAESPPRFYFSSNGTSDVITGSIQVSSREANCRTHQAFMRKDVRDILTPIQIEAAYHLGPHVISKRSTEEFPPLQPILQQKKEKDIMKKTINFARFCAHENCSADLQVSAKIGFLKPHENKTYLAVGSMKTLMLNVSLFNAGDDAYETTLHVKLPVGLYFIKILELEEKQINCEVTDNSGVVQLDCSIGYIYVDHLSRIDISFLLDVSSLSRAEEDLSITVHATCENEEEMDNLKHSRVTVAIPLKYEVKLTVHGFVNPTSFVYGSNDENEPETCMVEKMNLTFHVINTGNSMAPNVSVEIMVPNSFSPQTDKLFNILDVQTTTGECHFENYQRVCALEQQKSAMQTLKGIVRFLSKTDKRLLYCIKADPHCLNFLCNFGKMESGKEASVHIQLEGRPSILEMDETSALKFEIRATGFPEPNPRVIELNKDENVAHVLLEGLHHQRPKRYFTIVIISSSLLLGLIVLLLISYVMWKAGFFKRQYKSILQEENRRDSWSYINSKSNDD
Sequence (P05556 21-798): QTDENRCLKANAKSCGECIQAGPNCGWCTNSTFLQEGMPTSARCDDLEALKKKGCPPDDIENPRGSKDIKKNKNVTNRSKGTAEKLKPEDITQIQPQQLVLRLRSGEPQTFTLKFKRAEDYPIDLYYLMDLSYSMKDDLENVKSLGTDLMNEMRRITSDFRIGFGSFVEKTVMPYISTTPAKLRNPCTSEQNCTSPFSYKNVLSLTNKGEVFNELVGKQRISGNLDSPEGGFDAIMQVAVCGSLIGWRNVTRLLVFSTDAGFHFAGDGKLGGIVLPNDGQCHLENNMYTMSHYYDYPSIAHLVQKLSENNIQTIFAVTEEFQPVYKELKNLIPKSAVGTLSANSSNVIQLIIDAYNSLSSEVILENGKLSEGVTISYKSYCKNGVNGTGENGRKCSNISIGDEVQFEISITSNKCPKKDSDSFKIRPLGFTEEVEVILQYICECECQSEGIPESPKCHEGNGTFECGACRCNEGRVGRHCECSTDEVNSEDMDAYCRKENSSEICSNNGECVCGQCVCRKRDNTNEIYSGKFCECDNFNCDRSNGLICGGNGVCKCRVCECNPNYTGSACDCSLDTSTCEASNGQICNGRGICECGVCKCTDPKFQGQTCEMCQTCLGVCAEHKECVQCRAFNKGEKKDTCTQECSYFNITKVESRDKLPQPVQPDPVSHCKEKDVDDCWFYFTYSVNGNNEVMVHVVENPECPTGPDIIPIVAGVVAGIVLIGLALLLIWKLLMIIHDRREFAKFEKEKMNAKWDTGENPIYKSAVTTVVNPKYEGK
Assay: Inhibition of VLA4-dependent adhesion of Ramos cells to BSA-CS1
Type: cell-based
Conditions: Ramos cells, BSA-CS1 coated wells, 2 mM MnCl2, 30 minutes at room temperature; read-out: IC50
Numbered stars: 1 amine (or outer) side, 2 acyl side, 3 side chain; on linkers, the order of the positions; unused ones are H or OH. Peptide text beside a SMILES is read from it. * marks the point of attachment. PhAc = O=C(Cc1ccccc1)*; CO = O=C([*:1])[*:2]; NHBu = CCCCN*
Readout label: IC50

Reference set (5 entries):
Molecule	Endpoint result
CC(C)C[C@H](NC(=O)Cc1ccc(NC(=O)Nc2ccccc2)cc1)C(=O)N[C@@H](CC(=O)O)C(=O)NCc1ccccc1	0.05 to 10 µM
CNC(=O)[C@@H](NC(=O)[C@H](CC(=O)O)NC(=O)[C@H](CC(C)C)NC(=O)c1ccc2ccccc2n1)[C@@H](C)OC	0.05 to 10 µM
CC(C)(C)OC(=O)N[C@@H](CC(=O)O)C(=O)N1CCC[C@H]1C(=O)NCC(=O)O [Compound 135] (HELM PEPTIDE1{[CC(C)(C)OC(=O)[*:2]].D.P.G}$$$$V2.0)	> 10 µM
CC(C)C[C@H](NC(=O)c1ccc2ccccc2n1)C(=O)N[C@@H](CC(=O)O)C(=O)N[C@H](C(=O)N1CCN(c2ccccc2)CC1)C(C)C	> 10 µM
COC(=O)[C@@H](NC(=O)[C@H](CC(=O)O)NC(=O)[C@H](CC(C)C)NC(=O)Cc1ccccc1)[C@@H](C)OC(C)=O [Compound 193] (PhAc-Leu-Asp-Thr(Ac)-OMe)	> 10 µM

-- ask Look up IC50 for this molecule: CC(C)C[C@H](NC(=O)OC(C)(C)C)C(=O)N[C@@H](CC(=O)O)C(=O)N[C@H](C(=O)NC(C)(C)C)[C@@H](C)O [Compound 62] (HELM PEPTIDE1{[CC(C)(C)OC(=O)[*:2]].L.D.T.[CC(C)(C)N[*:1]]}$$$$V2.0)
-- reply > 10 µM

-- ask What do we get for CCCCNC(=O)N[C@@H](CC(=O)O)C(=O)N[C@H](C(=O)OC)C(C)C [Compound 169] ({NHBu-CO}-Asp-Val-OMe) ?
-- reply > 10 µM

-- ask Here is the next molecule: COC(=O)[C@@H](NC(=O)[C@H](CC(=O)O)NC(=O)[C@H](CC(C)C)NC(=O)Cc1ccccc1)[C@@H](C)OC [Compound 190] (PhAc-Leu-Asp-Thr(Me)-OMe)
-- reply > 10 µM

-- ask Moving on to the next molecule: CC(C)C[C@H](NC(=O)CCc1ccccc1)C(=O)N[C@@H](CC(=O)O)C(=O)N[C@H](C(=O)O)C(C)C [Compound 64] (HELM PEPTIDE1{[O=C(CCc1ccccc1)[*:2]].L.D.V}$$$$V2.0)
-- reply > 10 µM

-- ask Next entry: CC(C)[C@H](NC(=O)[C@H](CC(=O)O)NC(=O)c1ccccn1)C(=O)O
-- reply > 10 µM

-- ask Proceed to CC(C)C[C@H](NC(=O)C1Cc2ccccc2CN1)C(=O)N[C@@H](CC(=O)O)C(=O)O (some centres unmarked) [Compound 23] (HELM PEPTIDE1{[O=C(C1Cc2ccccc2CN1)[*:2]].L.D}$$$$V2.0)
-- reply > 10 µM

###

Target: VLA4 (Homo sapiens, UniProt P05556+P13612)
Construct: endogenous in cells; host or cells: Ramos cells
Experiment: Inhibition of VLA4-dependent adhesion of Ramos cells to BSA-CS1
Format: cell-based
Conditions: Ramos cells, BSA-CS1 coated wells, 2 mM MnCl2, 30 minutes at room temperature; read-out: IC50
Protocol: For example, the cell adhesion inhibitory activity of these compounds may be measured by determining the concentration of inhibitor required to block the binding of VLA-4-expressing cells to fibronectin- or CS1-coated plates. […] Inhibition of binding is measured by quantitating the fluorescence or radioactivity bound to the plate for each of the various concentrations of test compound, as well as for controls containing no test compound. […]
pIC50: −log10 of the molar value. Numbered stars: 1 amine (or outer) side, 2 acyl side, 3 side chain; on linkers, the order of the positions; unused ones are H or OH. Square brackets hold non-standard residues; d marks the D form. Peptide text beside a SMILES is read from it. * marks the point of attachment. X3 = COc1cc(CC(=O)[*:2])ccc1N[*:1]; X2 = O=C(Cc1ccc(N[*:1])cc1)[*:2]; Piperidide = C1CCN(*)CC1; CO = O=C([*:1])[*:2]; NHPh = c1ccc(N*)cc1
Readout label: pIC50

Compound	pIC50
CC(C)C[C@H](NC(=O)c1ccccn1)C(=O)N[C@@H](CC(=O)O)C(=O)N[C@H](C(=O)O)C(C)C	< 5.00
CC(C)C[C@H](NC(=O)Cc1ccc(NC(=O)Nc2ccccc2)cc1)C(=O)N[C@@H](CC(=O)O)C(=O)N1CCCCC1	5.00 to 7.30

-- ask Value wanted: pIC50 (VLA4 (Homo sapiens, UniProt P05556+P13612)) of entry CNC(=O)[C@@H](NC(=O)[C@H](CC(=O)O)NC(=O)[C@H](CC(C)C)N(C)C(=O)CCCc1ccccc1)C(C)C
-- reply < 5.00

-- ask Then this compound: COC(=O)[C@@H](NC(=O)[C@H](CC(=O)O)NC(=O)[C@H](CC(C)C)N(Cc1ccccc1)C(C)=O)C(C)C
-- reply < 5.00

-- ask Moving on to the next compound: CC(C)CNC(=O)[C@H](CC(=O)O)NC(=O)[C@H](CC(C)C)NC(=O)c1ccccc1
-- reply < 5.00

-- ask // same read-out, input: CC(C)CNC(=O)[C@H](CC(=O)O)NC(=O)[C@H](CC(C)C)NC(=O)CCC(=O)Nc1ccccc1
-- reply < 5.00

-- ask CNC(=O)[C@@H](NC(=O)[C@H](CC(=O)O)NC(=O)[C@H](CC(C)C)N(C)C(=O)c1ccccn1)C(C)C ?
-- reply < 5.00

-- ask Queued: COc1cc(CC(=O)N[C@@H](CC(C)C)C(=O)N[C@@H](CC(=O)O)C(=O)N[C@H](C(=O)N2CCC[C@H]2C(=O)O)C(C)C)ccc1NC(=O)Nc1ccccc1 [Compound 1] ({NHPh-CO}-[X3]LDVP-OH)
-- reply > 7.30

-- ask Would you mind doing CC(C)C[C@H](NC(=O)C1Cc2ccccc2CN1)C(=O)N[C@@H](CC(=O)O)C(=O)N[C@@H](Cc1ccccc1)C(=O)O (stereo partly shown) [Compound 92] (HELM PEPTIDE1{[O=C(C1Cc2ccccc2CN1)[*:2]].L.D.F}$$$$V2.0) as well?
-- reply < 5.00

-- ask Please give the result for CC(=O)N[C@@H](Cc1ccccc1)C(=O)N[C@@H](CC(C)C)C(=O)N[C@@H](CC(=O)O)C(=O)N[C@H](C(=O)O)C(C)C [Compound 152] (Ac-FLDV-OH) too.
-- reply < 5.00

-- ask Same lookup for CC(C)CCNC(=O)[C@H](CC(=O)O)NC(=O)[C@H](CC(C)C)NC(=O)CCc1ccc(O)cc1 , please.
-- reply < 5.00

-- ask Same question for CNC(=O)[C@@H](NC(=O)[C@H](CC(=O)O)NC(=O)[C@H](Cc1ccc(O)cc1)NC(=O)Cc1ccccc1)C(C)C [Compound 129] (HELM PEPTIDE1{[O=C(Cc1ccccc1)[*:2]].Y.D.V.[CN[*:1]]}$$$$V2.0) please.
-- reply < 5.00

-- ask Proceed to CC(C)C[C@H](NC(=O)Cc1ccc(NC(=O)Nc2ccccc2)cc1)C(=O)N[C@@H](CC(=O)O)C(=O)N[C@H](C(=O)N1CCC[C@H]1C(=O)O)C(C)C [Compound 145] ({NHPh-CO}-[X2]LDVP-OH)
-- reply > 7.30

-- ask // query: Cc1ccccc1NC(=O)Nc1ccc(CC(=O)N[C@@H](CC(C)C)C(=O)N[C@@H](CCC(=O)O)C(=O)N[C@@H](CC(=O)O)C(N)=O)cc1
-- reply > 7.30

-- ask Try the compound CNC(=O)[C@@H](NC(=O)[C@H](CC(=O)O)NC(=O)[C@H](CC(C)C)NC(=O)Cc1ccc(NC(=O)Nc2ccccc2)cc1)C(C)C
-- reply 5.00 to 7.30

-- ask What do you get for CC(C)C[C@H](NC(=O)c1ccc2ccccc2n1)C(=O)N[C@@H](CC(=O)O)C(=O)N[C@H](C(=O)Nc1ccccc1)C(C)C ?
-- reply < 5.00

-- ask Here is the next compound: CC(C)CNC(=O)[C@H](CC(=O)O)NC(=O)[C@H](CC(C)C)NC(=O)Cc1ccc(NC(=O)Nc2ccccc2)cc1
-- reply 5.00 to 7.30

-- ask Another: CC(C)C[C@H](NC(=O)Cc1ccc(NC(=O)Nc2ccccc2)cc1)C(=O)N[C@@H](CC(=O)O)C(=O)N[C@H](C(=O)N1CCC[C@H]1C(=O)N1CCCCC1)C(C)C [Compound 325] ({NHPh-CO}-[X2]LDVP-Piperidide)
-- reply 5.00 to 7.30

-- ask Ok, now CNC(=O)[C@@H](NC(=O)[C@H](CC(=O)O)NC(=O)[C@H](CCCCN)NC(=O)Cc1ccccc1)C(C)C [Compound 350] (HELM PEPTIDE1{[O=C(Cc1ccccc1)[*:2]].K.D.V.[CN[*:1]]}$$$$V2.0)
-- reply < 5.00

-- ask Also need CC[C@H](C)[C@H](NC(=O)Cc1ccc(NC(=O)Nc2ccccc2C)cc1)C(=O)N[C@@H](CC(=O)O)C(=O)N[C@@H](CCC(=O)O)C(N)=O , thanks.
-- reply > 7.30

-- ask Lookup CC(C)C[C@H](NC(=O)C1Cc2ccccc2CN1)C(=O)N[C@@H](CCC(=O)O)C(=O)N[C@H](C(=O)O)C(C)C (stereo partly shown) [Compound 31] (HELM PEPTIDE1{[O=C(C1Cc2ccccc2CN1)[*:2]].L.E.V}$$$$V2.0)
-- reply < 5.00

-- ask What do you get for CNC(=O)[C@@H](NC(=O)[C@H](CC(=O)O)NC(=O)[C@H](CC(C)C)N(C)C(=O)CCc1ccccc1)C(C)C [Compound 182] (HELM PEPTIDE1{[O=C(CCc1ccccc1)[*:2]].[meL].D.V.[CN[*:1]]}$$$$V2.0) ?
-- reply < 5.00
